Tested on: Spodoptera litura GSTs
Experiment: Inhibition of total GSTs enzyme of Spodoptera litura (CDNB method)
Format: biochemical
Details: 100 μM
OBSERVATION_TYPE: 100 μM Inhibition rate % (%)

CC1CCC2(CC1)NC(=O)N(NC(=O)c1cc(-c3ccccc3)nn1-c1ccccc1)C2=O (centres unmarked) :: −0.15
CC1(CCc2ccccc2)NC(=O)N(NC(=O)c2cc(-c3ccccc3)nn2-c2ccccc2)C1=O (centres unmarked) :: −5.22
CN(C)S(=O)(=O)c1cccc(C(=O)NNC(=O)c2cc(-c3ccccc3)nn2-c2ccccc2)c1 :: 12.58
O=C(COc1ccccc1)NNC(=O)c1cc(-c2ccccc2)nn1-c1ccccc1 :: 37.80
O=C(CC12C[C@H]3C[C@H](C1)C[C@@H](C2)C3)NNC(=O)c1cc(-c2ccccc2)nn1-c1ccccc1 :: 15.89
O=C(NN1C(=O)NC2(CCCCC2)C1=O)c1cc(-c2ccccc2)nn1-c1ccccc1 :: 6.90

1: COc1cc(C(=O)NNC(=O)c2cc(-c3ccccc3)nn2-c2ccccc2)cc(OC)c1OC
2: N#Cc1ccc(OCC(=O)NNC(=O)c2cc(-c3ccccc3)nn2-c2ccccc2)cc1
Query block: Which of these two has the smaller recorded 100 μM Inhibition rate %: 1 or 2 ? Record your answer as the label of the chosen record.
Result block: 1
(1: −17.52%, 2: 31.70%)

----------
Biological target: PxGSTε3 (Plutella xylostella)
Sequence (O77409 entry or part of it): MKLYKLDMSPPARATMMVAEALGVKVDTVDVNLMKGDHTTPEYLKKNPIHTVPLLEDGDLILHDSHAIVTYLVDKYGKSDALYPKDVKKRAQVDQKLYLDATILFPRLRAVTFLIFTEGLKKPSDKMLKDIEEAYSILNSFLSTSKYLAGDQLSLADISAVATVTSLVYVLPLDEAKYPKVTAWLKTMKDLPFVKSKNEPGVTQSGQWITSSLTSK
Experiment: Inhibition of PxGSTε3 recombinant protein
Format: biochemical
Details: read-out: 100 μM Inhibition rate %
OBSERVATION_TYPE: inhibition at 100 µM (%)

Examples with answers:
CCOC(=O)NNC(=O)c1cc(-c2ccccc2)nn1-c1ccccc1 :: 28.3
O=C(NNC(=O)[C@@H]1COc2ccccc2O1)c1cc(-c2ccccc2)nn1-c1ccccc1 :: -3.3

a: N#Cc1ccc(OCC(=O)NNC(=O)c2cc(-c3ccccc3)nn2-c2ccccc2)cc1
b: COc1ccccc1CC(=O)NNC(=O)c1cc(-c2ccccc2)nn1-c1ccccc1
Query block: When their inhibition at 100 µM values are compared, which is larger, a or b ? To answer, give the label that identifies your chosen option.
Result block: a

a: O=C(NN1C(=O)NC2(CCCCC2)C1=O)c1cc(-c2ccccc2)nn1-c1ccccc1
b: O=C(NNC(=O)c1cc(-c2ccc(Cl)cc2)nn1-c1ccccc1)c1ccccn1
Query block: From the items above, decide which of a and b has the lower inhibition at 100 µM reading. Let me know the label of the one you choose.
Result block: b
(b: -15.7%, a: 4.85%)

----------
System: Nilaparvata lugens GSTs
Assay: Inhibition of total GSTs enzyme of Nilaparvata lugens (CDNB method)
Format: biochemical
Conditions: 100 μM
OBSERVATION_TYPE: 100 μM Inhibition rate % (%)

O=C(NNC(=O)c1cc(-c2ccccc2)nn1-c1ccccc1)c1cc[nH]c(=O)c1 [PXG1] :: 100.60
COc1ccccc1OCC(=O)NNC(=O)c1cc(-c2ccccc2)nn1-c1ccccc1 [PXG18] :: 45.31
O=C(CC12C[C@H]3C[C@H](C1)C[C@@H](C2)C3)NNC(=O)c1cc(-c2ccccc2)nn1-c1ccccc1 [PXG26] :: 28.56
N#Cc1ccccc1OCC(=O)NNC(=O)c1cc(-c2ccccc2)nn1-c1ccccc1 [PXG23] :: 24.74

P: O=C(CNc1ccccc1)NNC(=O)c1cc(-c2ccccc2)nn1-c1ccccc1 [PXG3]
Q: CC1(CCc2ccccc2)NC(=O)N(NC(=O)c2cc(-c3ccccc3)nn2-c2ccccc2)C1=O (centres unmarked) [PXG15]
R: CN(C)S(=O)(=O)c1cccc(C(=O)NNC(=O)c2cc(-c3ccccc3)nn2-c2ccccc2)c1 [PXG9]
S: CCCCCCSC[C@H](NC(=O)CC[C@H](N)C(=O)O)C(=O)NCC(=O)O [GTX, S-Hexylglutathione, reference compound]
Query block: Order field: 100 μM Inhibition rate % | Direction: descending (largest first) Respond with an ordered listing of the labels, as requested.
Result block: S, P, Q, R
